Experiment: Circular dichroism spectroscopy (secondary structure)
Type: physicochemical
Settings: CD, 20 µM peptide, 10 mM phosphate buffer pH 7.0 with 50% TFE, 20 °C; calculated from ellipticity at 222 nm
parameter_measured: Percentage of the α-helix content: 50% TFE (%)
Answers are plain numbers, in %.

Solved cases below.
INSERT INTO results (substance, reported_value) VALUES
  ('GLRKRLRKFRNKKCVRQNNKRVCK-NH2 [sC18*-Tylotoin, chimeric peptide, CPP sC18* fused N-terminally to Tylotoin]', 40.5),
  ('KCVRQNNKRVCK-NH2 [Tylotoin, wound healing promoting peptide from skin of the salamander Tylototriton verrucosus; made as C-terminal amide without disulfide bridge, reference compound]', 25.0);

Quick batch: Percentage of the α-helix content: 50% TFE for everything below.
1. GLRKRLRKFRNKIKEKKCVRQNNKRVCK-NH2 [sC18-Tylotoin, chimeric peptide, CPP sC18 fused N-terminally to Tylotoin]
2. KCVRQNNKRVCKGLRKRLRKFRNKIKEK-NH2 [Tylotoin-sC18, chimeric peptide, CPP sC18 fused to the C-terminus of Tylotoin]

1: 43.5; 2: 46.3
